Data export: IC50 values recorded with aldose reductase (Bos taurus).
quantity: IC50

compound: CN(CC(=O)O)S(=O)(=O)c1ccc2oc3ccc(F)cc3c(=O)c2c1 [ARI 8]
test_target: aldose reductase (Bos taurus)
quantity: IC50
measured_result: 1 µM
//
compound: CN(CC(=O)O)S(=O)(=O)c1ccc2oc3ccc(Cl)cc3c(=O)c2c1 [ARI 6]
test_target: aldose reductase (Bos taurus)
quantity: IC50
measured_result: 9.2 µM
//
compound: Cc1cc(C)c(S(=O)(=O)N(C)CC(=O)O)cc1S(=O)(=O)N(C)CC(=O)O [ARI 1]
test_target: aldose reductase (Bos taurus)
quantity: IC50
measured_result: 3.6 µM

* * *

test: Acute toxicity: rat; details: in vivo; rat (Wistar), 400 (unit and route not given), 20 ml/kg; read-out: % Death

smiles: CN(CC(=O)O)S(=O)(=O)c1ccc2oc3ccc(F)cc3c(=O)c2c1
mortality at 360 h: 0%

* * *

experiment: Acute toxicity: rat; conditions: in vivo; rat (Wistar), 500 mg/kg/iv, 20 ml/kg; read-out: % Death
In this section we review reported mortality at 360 h values for a set of compounds.

compound: CN(CC(=O)O)S(=O)(=O)c1ccc2oc3ccc(F)cc3c(=O)c2c1 [ARI 8]
mortality at 360 h: 40%
--
compound: Cc1cc(C)c(S(=O)(=O)N(C)CC(=O)O)cc1S(=O)(=O)N(C)CC(=O)O [ARI 1]
mortality at 360 h: 0%

* * *

assay: Acute toxicity of ARI 6 in the mouse; conditions: in vivo, ip, read-out: Acute toxicity in the mouse ip

compound: CN(CC(=O)O)S(=O)(=O)c1ccc2oc3ccc(Cl)cc3c(=O)c2c1 [ARI 6]
LD50 / mg/kg: 1000

* * *

assay: Acute toxicity of ARI 6 in the rat; conditions: in vivo, ip, read-out: Acute toxicity in the rat ip

compound: CN(CC(=O)O)S(=O)(=O)c1ccc2oc3ccc(Cl)cc3c(=O)c2c1 [ARI 6]
LD50 [mg/kg]: 1000
